# experimental system: endogenous CGRP receptor (Homo sapiens, UniProt O60894+Q16602)
# Sequence (Q16602 23-461): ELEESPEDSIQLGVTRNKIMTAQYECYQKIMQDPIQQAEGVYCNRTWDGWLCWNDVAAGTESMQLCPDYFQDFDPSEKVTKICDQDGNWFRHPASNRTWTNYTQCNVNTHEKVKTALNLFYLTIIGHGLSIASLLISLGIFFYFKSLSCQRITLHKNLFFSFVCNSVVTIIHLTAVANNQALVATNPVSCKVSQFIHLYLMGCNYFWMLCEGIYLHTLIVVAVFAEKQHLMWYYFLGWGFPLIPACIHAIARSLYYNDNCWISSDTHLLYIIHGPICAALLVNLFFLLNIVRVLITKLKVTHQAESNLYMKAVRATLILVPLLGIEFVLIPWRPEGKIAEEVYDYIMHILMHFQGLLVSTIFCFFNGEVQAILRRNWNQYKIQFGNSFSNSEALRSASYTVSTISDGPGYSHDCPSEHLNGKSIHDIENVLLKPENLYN
# Sequence (O60894 27-148): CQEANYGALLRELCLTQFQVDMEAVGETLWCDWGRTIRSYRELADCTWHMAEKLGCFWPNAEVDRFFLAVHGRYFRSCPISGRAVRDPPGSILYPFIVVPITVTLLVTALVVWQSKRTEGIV
# assay protocol: CGRP functional antagonism using SK-N-MC-BLA (4C10), β-lactamase transcriptional reporter assay
# test context: SK-N-MC (4C10) cells, inhibition of β-lactamase expression in the presence of 200 pM CGRP
pIC50: −log10 of the molar value.
Let's look at some compounds and their measured pIC50.

Some solved entries appear below for comparison.
In: Sample CC(C)CCN1C(=O)C(CC(=O)N2CCC(N3Cc4ccccc4NC3=O)CC2)SC1C1CCOCC1 (centres unmarked) — what was its pIC50?
Out: 5.30 to 6.00

In: Continue with CC(C)CCN1C(=O)C(CC(=O)N2CCC(N3Cc4ccccc4NC3=O)CC2)SC1C1CCCOC1 (centres unmarked)
Out: > 6.00

In: What would you report for CC(C)(C)CCN1C(=O)C(CC(=O)N2CCC(N3CCc4ccccc4NC3=O)CC2)SC1c1ccccc1C1=CCNCC1 (centres unmarked) ?
Out: 5.30 to 6.00

In: Repeat for the following compound: CC(C)(C)CCN1C(=O)C(CC(=O)N2CCC(N3CCc4ccccc4NC3=O)CC2)SC1c1ccccc1F (centres unmarked)
Out: > 6.00

Next:
In: Field request: pIC50 | item: CC(C)CCN1C(=O)C(CC(=O)N2CCC(n3cc(-c4ccccc4)[nH]c3=O)CC2)SC12CCCCC2 (centres unmarked)
Out: 5.30 to 6.00

In: Check CC(C)CCN1C(=O)C(CC(=O)N2CCC(N3Cc4ccccc4NC3=O)CC2)SC1c1cccc(Cl)c1 (centres unmarked) too.
Out: > 6.00

In: Likewise for CC(C)(C)CCN1C(=O)[C@H](CC(=O)N2CCC(N3CCc4ccccc4NC3=O)CC2)SC1c1ccccc1N1CCNCC1=O (some centres unmarked) [Compound 511] ?
Out: > 6.00

In: Next: CC(C)(C)CCN1C(=O)C(CC(=O)N2CCC(N3CCc4ccccc4NC3=O)CC2)SC1c1ccccc1-n1ccnc1 (centres unmarked)
Out: > 6.00

In: Would you kindly repeat that for CC(C)(C)CCN1C(=O)[C@H](CC(=O)N2CCC(N3CCc4ccccc4NC3=O)CC2)SC1c1cccc(F)c1N1CCC(N2CCCCC2)CC1 (some centres unmarked) [Compound 550] ?
Out: > 6.00

In: Now the compound CC(C)(C)CCN1C(=O)[C@H](CC(=O)N2CCC(n3c(=O)[nH]c4ncccc43)CC2)SC1c1cccc(F)c1N1CCC(O)C1 (some centres unmarked)
Out: > 6.00
